Where do the numbers come from? From ChEMBL document CHEMBL4513135.

Please provide measured Inhibition for the entries that follow.
Tested on: Klebsiella pneumoniae
Details: Concentration 32 ug.mL-1; ASSAY_TEST Inhibition of Bacterial Growth; detection method Absorption (OD600); MEDIA CAMHB; plate type 384well; NBS; CORNING #3640; time 18 hr
Description: Antibacterial activity against Klebsiella pneumoniae MDR ATCC 70063 (CO-ADD:GN_003); MIC in CAMBH media using NBS plates, by OD(600)
Potency and affinity values are given separately.
Give bare numbers, in %.

Solved cases below.
molecule="Cc1[nH]nc2c1C(c1ccc(O)c(O)c1)C(C#N)=C(N)O2 (stereo not given)" measurement_unit=% observed_result=21.92
molecule="CCOC(=O)C1=C(C)OC(N)=C(C#N)C1c1cccnc1 (stereo not given)" measurement_unit=% observed_result=0.99

Would you be so kind as to report Inhibition for each listed record?
1. COc1nc(Cl)c(C#N)c(-c2ccccc2)c1C#N
2. CCCC(C)NNC(=O)c1cc2ccccc2[nH]1 (stereo not given)
3. Cc1nc(Nc2ccccc2)c2cnn(-c3ccccc3)c2n1
4. C#CCN(C)c1nc(NCC2CCN(Cc3ccccc3)CC2)c(C#N)c(-c2ccccc2)c1C#N
5. COc1cc(C=NNC(=O)Cc2c[nH]c3ccccc23)ccc1O
6. CCOC(=O)c1cn(C)c2ccccc12

Marked response:
1: 0.27; 2: -0.18; 3: 17.53; 4: 6.45; 5: -2.6; 6: 12.15

Would you be so kind as to report Inhibition for each listed record?
1. CC1=N/C(=C(\C)c2ccccc2)C(=O)O1
2. COC1(N)Oc2ccc3ccccc3c2C(c2ccccc2)C1(Br)C#N (stereo not given)

Marked response:
1. -1.65
2. -5.7

* * *

Tested on: Candida albicans
Conditions: 32 ug/mL
Description: Antifungal activity against Candida albicans ATCC 90028 (CO-ADD:FG_001); MIC in YNB media using NBS plates, by OD630
Potency and affinity values are given separately.
Reported Metric: Inhibition (%)
One number for each entry, in %.

Solved cases below.
compound=C#CCNc1ncc(C#N)c(N)n1 observed_result=2.29
compound="CCOC(=O)C1=C(C)OC(N)=C(C#N)C1c1cccs1 (centres undefined)" observed_result=0.39
compound=N#C/C(=C\c1ccccc1)C(=O)c1ccccc1 observed_result=4.89

Turning now to a further compound:
According to the records, this compound COc1ccc2c(ccn2C)c1 displays Inhibition of 1.33

* * *

Please provide measured Inhibition for the entries that follow.
Test system: Cryptococcus neoformans
Details: Concentration 32 ug.mL-1; ASSAY_TEST Inhibition of Fungal Growth; detection method Resazurin; Absorption (OD600-OD570); plate type 384well; NBS; CORNING #3640
Description: Antifungal activity against Cryptococcus neoformans H99 ATCC 208821 (CO-ADD:FG_002); MIC in YNB media using NBS plates, by Resazurin OD(600-570)
Entries with a potency or affinity are not part of this list.

Solved cases below.
compound=Cl.ClCCCCN1CCCCC1 reported_metric=Inhibition observed_result=-8.6%
compound="COc1ccccc1C1c2ccc3ccccc3c2Oc2nc3c(c(N)c21)CCCC3 (stereo not given)" reported_metric=Inhibition observed_result=-4.38%
compound=C#CCN(C)c1cc(Cl)nc(N)n1 reported_metric=Inhibition observed_result=-46.13%
compound="COc1ccccc1C1c2c(ccc3ccccc23)OC(=N)C1(Br)C#N (stereo not given)" reported_metric=Inhibition observed_result=-63.67%
compound="CC(C)CC(C)NNC(=O)c1cc2ccccc2[nH]1 (stereo not given)" reported_metric=Inhibition observed_result=-6.14%

Would you be so kind as to report Inhibition for each listed record?
1. COc1ccc(C2c3ccc4ccccc4c3Oc3nc4c(c(N)c32)CCCC4)c(OC)c1 (stereo not given)
2. C#CCN(C)c1ncc(C#N)c(N)n1
3. CCC(Cc1ccccc1)NNC(=O)c1cc2ccccc2[nH]1 (stereo not given)
4. N#CC1(Br)C(=NBr)Oc2ccc3ccccc3c2C1c1ccc([N+](=O)[O-])cc1 (stereo not given)
5. N#CC1(Br)C(=NBr)Oc2c(ccc3ccccc23)C1c1ccc([N+](=O)[O-])cc1 (stereo not given)

Marked response:
1. -0.17%
2. -42.08%
3. -1.62%
4. -71.87%
5. -87.41%
